biological target: Mitogen-activated protein kinase 8 (Homo sapiens, UniProt P45983); test: Inhibition of recombinant JNK1A1 after 1 hr by scintillation counter analysis in presence of gamma-[33P]ATP
Sequence (P45983 whole entry): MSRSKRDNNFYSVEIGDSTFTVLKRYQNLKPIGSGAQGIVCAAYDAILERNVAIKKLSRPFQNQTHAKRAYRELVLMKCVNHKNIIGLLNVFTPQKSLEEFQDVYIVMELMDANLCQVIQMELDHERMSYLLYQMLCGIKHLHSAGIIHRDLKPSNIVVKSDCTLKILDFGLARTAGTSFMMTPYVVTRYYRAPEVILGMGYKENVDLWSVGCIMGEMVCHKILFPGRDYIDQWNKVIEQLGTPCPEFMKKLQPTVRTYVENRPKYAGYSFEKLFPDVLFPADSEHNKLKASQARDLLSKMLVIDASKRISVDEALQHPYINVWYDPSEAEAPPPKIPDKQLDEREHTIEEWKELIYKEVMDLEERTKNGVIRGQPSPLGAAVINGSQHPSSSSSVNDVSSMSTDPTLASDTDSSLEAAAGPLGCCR
pKi: −log10 of the molar value.

entry.smiles	pKi
CC(C)(C)Nc1c(Nc2ccnc(Nc3ccc(-c4ccncc4)cc3)n2)c(=O)c1=O	< 5.52

====

target: Rho-associated protein kinase 1 (Homo sapiens, UniProt Q13464); test: Inhibition of recombinant ROCK1 after 1 hr by scintillation counter analysis in presence of gamma-[33P]ATP
Sequence (Q13464 whole entry): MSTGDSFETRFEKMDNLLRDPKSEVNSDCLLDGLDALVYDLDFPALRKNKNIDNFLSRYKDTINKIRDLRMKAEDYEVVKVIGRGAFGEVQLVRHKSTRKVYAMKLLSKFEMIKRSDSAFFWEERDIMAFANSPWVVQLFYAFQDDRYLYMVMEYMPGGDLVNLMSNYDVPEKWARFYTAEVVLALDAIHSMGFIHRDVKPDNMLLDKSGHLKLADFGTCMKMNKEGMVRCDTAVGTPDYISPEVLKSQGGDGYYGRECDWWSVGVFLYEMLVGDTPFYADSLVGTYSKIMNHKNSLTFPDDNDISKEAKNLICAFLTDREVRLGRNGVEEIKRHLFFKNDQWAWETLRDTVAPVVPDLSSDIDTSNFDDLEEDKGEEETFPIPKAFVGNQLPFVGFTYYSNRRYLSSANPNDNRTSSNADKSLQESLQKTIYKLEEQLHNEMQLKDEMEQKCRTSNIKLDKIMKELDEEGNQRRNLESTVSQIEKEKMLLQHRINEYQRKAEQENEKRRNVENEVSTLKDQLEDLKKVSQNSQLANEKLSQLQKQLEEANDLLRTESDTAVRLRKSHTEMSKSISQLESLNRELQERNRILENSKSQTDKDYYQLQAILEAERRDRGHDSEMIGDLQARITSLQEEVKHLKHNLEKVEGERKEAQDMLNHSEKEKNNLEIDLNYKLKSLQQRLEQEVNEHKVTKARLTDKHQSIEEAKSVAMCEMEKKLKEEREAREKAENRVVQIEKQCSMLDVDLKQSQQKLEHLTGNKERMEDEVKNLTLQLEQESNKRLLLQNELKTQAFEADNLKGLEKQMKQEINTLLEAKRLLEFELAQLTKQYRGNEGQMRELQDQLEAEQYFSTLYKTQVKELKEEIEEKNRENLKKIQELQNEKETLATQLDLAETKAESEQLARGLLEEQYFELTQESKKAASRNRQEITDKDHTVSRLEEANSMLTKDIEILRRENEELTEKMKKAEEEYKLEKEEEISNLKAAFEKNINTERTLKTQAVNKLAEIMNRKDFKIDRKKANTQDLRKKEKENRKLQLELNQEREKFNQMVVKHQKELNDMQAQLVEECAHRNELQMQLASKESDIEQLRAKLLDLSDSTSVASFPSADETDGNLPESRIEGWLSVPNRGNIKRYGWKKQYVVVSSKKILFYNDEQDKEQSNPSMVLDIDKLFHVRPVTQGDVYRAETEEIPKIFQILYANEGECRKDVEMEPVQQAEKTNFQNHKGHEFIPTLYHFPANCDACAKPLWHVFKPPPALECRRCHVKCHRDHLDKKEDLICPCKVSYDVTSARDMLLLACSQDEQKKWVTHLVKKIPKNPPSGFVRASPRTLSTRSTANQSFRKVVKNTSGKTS
pKi: −log10 of the molar value.
metric: pKi

entry.smiles	system	quantitative.result
CC(C)(C)Nc1c(Nc2ccnc(Nc3ccc(-c4ccncc4)cc3)n2)c(=O)c1=O	Rho-associated protein kinase 1 (Homo sapiens, UniProt Q13464)	6.66

====

Target: Serine/threonine-protein kinase D2 (Homo sapiens, UniProt Q9BZL6)
Sequence (Q9BZL6 whole entry): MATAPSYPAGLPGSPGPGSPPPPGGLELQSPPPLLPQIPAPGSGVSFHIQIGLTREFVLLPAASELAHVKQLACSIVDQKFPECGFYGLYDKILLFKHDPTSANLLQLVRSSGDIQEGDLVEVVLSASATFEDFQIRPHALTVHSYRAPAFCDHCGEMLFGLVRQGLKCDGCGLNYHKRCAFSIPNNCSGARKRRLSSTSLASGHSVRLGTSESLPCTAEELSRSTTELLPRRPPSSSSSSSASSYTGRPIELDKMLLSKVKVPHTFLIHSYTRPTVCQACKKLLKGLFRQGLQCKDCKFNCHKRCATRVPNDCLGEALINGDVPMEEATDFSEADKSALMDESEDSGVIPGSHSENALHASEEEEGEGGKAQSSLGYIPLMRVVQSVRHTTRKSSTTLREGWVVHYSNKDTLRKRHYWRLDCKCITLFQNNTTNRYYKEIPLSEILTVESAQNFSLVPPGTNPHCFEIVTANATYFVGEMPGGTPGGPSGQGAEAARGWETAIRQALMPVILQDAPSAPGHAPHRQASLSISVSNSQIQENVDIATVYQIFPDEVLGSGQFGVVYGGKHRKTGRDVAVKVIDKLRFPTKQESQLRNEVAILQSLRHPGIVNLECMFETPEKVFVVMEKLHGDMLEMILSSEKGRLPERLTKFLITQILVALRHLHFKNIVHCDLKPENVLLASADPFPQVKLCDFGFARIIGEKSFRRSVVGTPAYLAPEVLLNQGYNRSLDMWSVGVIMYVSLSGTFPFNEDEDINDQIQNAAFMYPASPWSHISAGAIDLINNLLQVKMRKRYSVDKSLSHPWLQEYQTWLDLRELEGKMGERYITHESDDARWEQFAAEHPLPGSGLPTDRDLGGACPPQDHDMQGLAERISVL
Assay: Inhibition of recombinant PKD2 after 1 hr by scintillation counter analysis in presence of gamma-[33P]ATP
metric: Ki (nM)

entry.smiles	metric	quantitative.result
CC(C)(C)Nc1c(Nc2ccnc(Nc3ccc(-c4ccncc4)cc3)n2)c(=O)c1=O	Ki	175

====

assay: Inhibition of recombinant PKA after 1 hr by scintillation counter analysis in presence of gamma-[33P]ATP
metric: Ki

entry.smiles	result
CC(C)(C)Nc1c(Nc2ccnc(Nc3ccc(-c4ccncc4)cc3)n2)c(=O)c1=O	> 7.5 µM

====

biological target: RAC-alpha serine/threonine-protein kinase (Homo sapiens, UniProt P31749); test: Inhibition of recombinant AKT1 after 1 hr by scintillation counter analysis in presence of gamma-[33P]ATP
Sequence (P31749 whole entry): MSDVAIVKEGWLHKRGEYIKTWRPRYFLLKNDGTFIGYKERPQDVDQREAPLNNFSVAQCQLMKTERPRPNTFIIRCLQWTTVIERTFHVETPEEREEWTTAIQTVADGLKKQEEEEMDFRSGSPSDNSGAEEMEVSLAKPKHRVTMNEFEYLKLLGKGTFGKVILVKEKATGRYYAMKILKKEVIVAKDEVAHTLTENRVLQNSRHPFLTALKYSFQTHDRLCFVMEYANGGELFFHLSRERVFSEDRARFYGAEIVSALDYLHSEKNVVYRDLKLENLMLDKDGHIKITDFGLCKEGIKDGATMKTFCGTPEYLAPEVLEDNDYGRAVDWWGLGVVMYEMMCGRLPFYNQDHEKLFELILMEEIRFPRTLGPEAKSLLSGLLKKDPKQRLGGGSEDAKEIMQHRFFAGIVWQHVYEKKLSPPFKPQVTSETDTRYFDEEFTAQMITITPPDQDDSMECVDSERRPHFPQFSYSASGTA
pKi: −log10 of the molar value.

entry.smiles	pKi
CC(C)(C)Nc1c(Nc2ccnc(Nc3ccc(-c4ccncc4)cc3)n2)c(=O)c1=O	< 5.10

====

target: LIM domain kinase 1 (Homo sapiens); test: Inhibition of recombinant LIMK1 after 1 hr by scintillation counter analysis in presence of gamma-[33P]ATP
Sequence (P53667 whole entry, the tested form may be a part): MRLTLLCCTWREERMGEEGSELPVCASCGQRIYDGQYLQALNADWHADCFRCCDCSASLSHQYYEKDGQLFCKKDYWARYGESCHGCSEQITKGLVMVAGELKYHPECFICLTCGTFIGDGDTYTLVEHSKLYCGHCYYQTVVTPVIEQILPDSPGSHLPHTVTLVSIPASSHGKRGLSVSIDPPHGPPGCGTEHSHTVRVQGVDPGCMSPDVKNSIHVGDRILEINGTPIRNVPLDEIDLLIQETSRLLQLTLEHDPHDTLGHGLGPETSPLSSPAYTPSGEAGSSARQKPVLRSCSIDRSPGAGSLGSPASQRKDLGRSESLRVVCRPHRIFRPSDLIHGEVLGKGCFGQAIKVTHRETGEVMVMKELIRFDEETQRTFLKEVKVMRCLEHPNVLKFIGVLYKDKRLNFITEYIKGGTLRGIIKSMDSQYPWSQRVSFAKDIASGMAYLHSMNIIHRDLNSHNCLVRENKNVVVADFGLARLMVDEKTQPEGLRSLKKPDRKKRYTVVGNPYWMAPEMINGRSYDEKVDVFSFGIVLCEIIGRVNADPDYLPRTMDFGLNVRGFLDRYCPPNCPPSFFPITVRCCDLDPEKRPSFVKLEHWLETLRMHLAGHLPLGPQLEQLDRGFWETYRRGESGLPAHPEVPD
pKi: −log10 of the molar value.

entry.smiles	pKi
CC(C)(C)Nc1c(Nc2ccnc(Nc3ccc(-c4ccncc4)cc3)n2)c(=O)c1=O	6.71

====

molecular target: Tyrosine-protein kinase Fyn (Homo sapiens); experiment: Inhibition of recombinant FYN after 1 hr by scintillation counter analysis in presence of gamma-[33P]ATP
Sequence (P06241 whole entry): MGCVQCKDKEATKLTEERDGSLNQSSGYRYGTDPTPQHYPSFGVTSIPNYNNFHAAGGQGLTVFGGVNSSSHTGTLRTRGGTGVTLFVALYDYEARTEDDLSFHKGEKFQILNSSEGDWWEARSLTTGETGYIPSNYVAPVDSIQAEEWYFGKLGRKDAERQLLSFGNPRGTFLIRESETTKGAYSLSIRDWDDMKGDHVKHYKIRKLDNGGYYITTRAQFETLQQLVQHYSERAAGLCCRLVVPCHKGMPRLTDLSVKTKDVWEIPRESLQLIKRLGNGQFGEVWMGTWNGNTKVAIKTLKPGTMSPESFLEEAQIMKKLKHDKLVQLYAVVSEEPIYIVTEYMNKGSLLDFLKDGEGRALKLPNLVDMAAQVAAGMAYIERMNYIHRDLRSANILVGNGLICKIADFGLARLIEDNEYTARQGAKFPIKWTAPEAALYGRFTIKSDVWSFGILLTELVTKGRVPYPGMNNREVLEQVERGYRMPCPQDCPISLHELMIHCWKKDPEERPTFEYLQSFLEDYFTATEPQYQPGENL
pKi: −log10 of the molar value.
metric: pKi

entry.smiles	system	quantitative.result
CC(C)(C)Nc1c(Nc2ccnc(Nc3ccc(-c4ccncc4)cc3)n2)c(=O)c1=O	Tyrosine-protein kinase Fyn (Homo sapiens)	6.48

====

target: Tyrosine-protein kinase Lyn (Homo sapiens); assay: Inhibition of recombinant LYN after 1 hr by scintillation counter analysis in presence of gamma-[33P]ATP
Sequence (P07948 whole entry): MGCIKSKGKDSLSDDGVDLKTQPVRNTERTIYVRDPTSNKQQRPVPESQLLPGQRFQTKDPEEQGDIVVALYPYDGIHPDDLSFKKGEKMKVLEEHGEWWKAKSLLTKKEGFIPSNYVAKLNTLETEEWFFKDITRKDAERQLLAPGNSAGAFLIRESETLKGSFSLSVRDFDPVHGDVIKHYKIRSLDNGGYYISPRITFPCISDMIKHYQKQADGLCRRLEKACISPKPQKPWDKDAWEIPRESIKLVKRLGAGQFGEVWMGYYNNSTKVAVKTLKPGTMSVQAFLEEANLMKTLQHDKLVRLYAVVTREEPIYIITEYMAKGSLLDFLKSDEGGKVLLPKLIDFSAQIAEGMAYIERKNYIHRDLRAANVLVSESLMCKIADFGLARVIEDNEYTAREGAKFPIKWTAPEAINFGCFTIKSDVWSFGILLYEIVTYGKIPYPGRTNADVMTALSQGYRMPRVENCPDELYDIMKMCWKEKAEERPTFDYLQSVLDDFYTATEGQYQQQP
pKi: −log10 of the molar value.
metric: pKi

entry.smiles	result
CC(C)(C)Nc1c(Nc2ccnc(Nc3ccc(-c4ccncc4)cc3)n2)c(=O)c1=O	< 5.80

====

test: Half life in mouse; type: ADME, organism-based; conditions: in vivo
metric: half-life (min)

entry.smiles	metric	quantitative.result
C[C@@H](Nc1c(Nc2ccncc2)c(=O)c1=O)C(C)(C)C	half-life	23.4

====

target: Serine/threonine-protein kinase PLK1 (Homo sapiens); assay: Inhibition of recombinant GST-tagged PLK1 using biotin-ahx-AKMETTFYDDALNASFLPSEKKK-amide as substrate after 30 mins by scintillation counting analysis in presence of gamma-[33P]ATP
Sequence (P53350 whole entry): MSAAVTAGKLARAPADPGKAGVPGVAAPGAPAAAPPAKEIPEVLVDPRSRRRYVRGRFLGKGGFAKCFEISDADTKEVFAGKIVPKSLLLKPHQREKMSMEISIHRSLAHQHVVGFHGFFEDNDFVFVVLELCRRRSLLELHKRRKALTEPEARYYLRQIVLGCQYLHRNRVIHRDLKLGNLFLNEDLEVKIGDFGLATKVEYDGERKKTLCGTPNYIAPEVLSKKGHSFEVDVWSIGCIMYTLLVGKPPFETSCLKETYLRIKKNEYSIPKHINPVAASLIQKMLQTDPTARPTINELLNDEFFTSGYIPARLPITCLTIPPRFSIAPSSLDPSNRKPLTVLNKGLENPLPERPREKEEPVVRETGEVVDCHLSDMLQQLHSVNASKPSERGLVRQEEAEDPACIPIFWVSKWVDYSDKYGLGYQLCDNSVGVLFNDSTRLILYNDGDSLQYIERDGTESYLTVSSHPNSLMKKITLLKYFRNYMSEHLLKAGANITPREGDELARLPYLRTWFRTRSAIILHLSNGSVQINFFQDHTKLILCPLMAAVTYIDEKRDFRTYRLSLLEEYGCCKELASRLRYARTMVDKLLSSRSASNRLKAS
// NB: equality with 8000 nM counts as -1; only Ki strictly below is 1

molecule	assigned.label
COc1cc(Nc2ncc(C#N)c(Nc3c(N[C@H](C)C(C)(C)C)c(=O)c3=O)n2)cc(OC)c1OC	1
C[C@@H](Nc1nccc(Nc2c(N[C@H](C)C(C)(C)C)c(=O)c2=O)n1)c1ccccc1	-1
O=c1c(NCCN2CCOCC2)c(Nc2ccnc(Nc3ccc(-c4ccccc4)cc3)n2)c1=O	-1
O=c1c(NCC2CC2)c(Nc2ccnc(Nc3ccc(-c4ccccc4)cc3)n2)c1=O	-1
C[C@@H](Nc1c(Nc2cccnc2)c(=O)c1=O)C(C)(C)C	-1
CC(C)(C)Nc1c(Nc2ccnc(Nc3ccc4c(c3)CCO4)n2)c(=O)c1=O	1
CC(C)C(C)Nc1c(Nc2ccnc(Nc3ccc(-c4ccccc4)cc3)n2)c(=O)c1=O (stereo unspecified)	1
C[C@@H](Nc1c(Nc2ccnc(Nc3ccc4c(c3)OCCO4)n2)c(=O)c1=O)C(C)(C)C	1
C[C@@H](Nc1c(Nc2ccnc(Nc3ccc(Cl)cc3)n2)c(=O)c1=O)C(C)(C)C	1
CC(C)(C)Nc1c(Nc2ccnc(Nc3ccc(-c4cccnc4)cc3)n2)c(=O)c1=O	1
CC(C)(C)Nc1c(Nc2ccnc(Nc3ccc(-c4csnn4)cc3)n2)c(=O)c1=O	1
CC(C)(C)Nc1c(Nc2ccnc(Nc3ccc4c(c3)[nH]c3ccccc34)n2)c(=O)c1=O	1
C[C@@H](Nc1c(Nc2ccnc(Nc3ccc4ccccc4c3)n2)c(=O)c1=O)C(C)(C)C	1
COc1cc(Nc2nccc(Nc3c(N[C@H](C)C(C)(C)C)c(=O)c3=O)n2)cc(OC)c1OC	1
O=c1c(Nc2ccc(OC(F)(F)F)cc2)c(Nc2ccnc(Nc3ccc(-c4ccccc4)cc3)n2)c1=O	-1
C[C@@H](Nc1c(Nc2ccnc(Nc3ccncc3)n2)c(=O)c1=O)C(C)(C)C	-1
